Procedure summary: chemical genetic growth profiling, strain panel (AID 1159580);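 note: tested at 20 µM; growth read once vehicle control cultures reached saturation at 30 °C; 1 = growth at the plate median or of vehicle wells; lower values mean less growth of the strain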
Condition info: S. cerevisiae deletion strains, growth OD, locus YJR066W, strain TOR1 (second series), hits give low values
Hit rate of the full screen: of about 5,500 compounds, about 2,000 (36%) were called active. Roughly 18% stayed inconclusive and do not appear here. Some of the results follow.
We label by threshold. Values of normalized growth strictly beneath 0.9 are 1. Values of 0.9 and up are -1.

Compound: FC(F)(F)c1c2c(nc3cc(-c4ccco4)nn13)CCC2
Class: -1
//
Compound: CC(C)Sc1c(Cl)cccc1NC(=O)Nc1cccc(C(F)(F)F)c1
Class: -1
//
Compound: O=[N+]([O-])c1ccc(Sc2ccccc2)cc1O
Class: 1
//
Compound: O=C(NCc1ccc2c(c1)OCO2)c1cc2ccccc2s1
Class: 1
//
Compound: O=C(Nc1ccccc1Sc1ccc(C(F)(F)F)cc1[N+](=O)[O-])C(Cl)Cl
Class: -1
//
Compound: COc1cc(C2CC(=S)Nc3ccccc3S2)cc(OC)c1OC (stereo unspecified)
Class: -1
//
Compound: CCOC(=O)c1cnc(-c2ccccn2)[nH]c1=O
Class: 1
//
Compound: Cc1cc(C)c2cc(C(=O)NCCNc3ccc(C(F)(F)F)cn3)[nH]c2c1
Class: 1
//
Compound: CCOC(=O)C(NC(=O)c1cccc(Cl)c1)(Nc1nc2ccccc2s1)C(F)(F)F (stereo unspecified)
Class: -1
//
Compound: Cc1cc(Sc2c([N+](=O)[O-])cc(C(F)(F)F)cc2[N+](=O)[O-])c(Cl)cc1Cl
Class: -1
